Target: Human immunodeficiency virus type 1 protease (Human immunodeficiency virus 1, UniProt Q72874)
Known IC50 of a selection of molecules
For clarity, give the value followed by its unit.

>>> result("CC(C)(C)NC(=O)[C@@H]1CN(S(C)(=O)=O)CCN1C[C@@H](O)C[C@@H](Cc1ccccc1)C(=O)N[C@H]1c2ccccc2C[C@H]1O")
"1.6 nM"

// next item, IC50 requested
Annotate the molecule CC(C)(C)NC(=O)[C@@H]1CN(Cc2ccc(Cl)c(Cl)c2)CCN1C[C@@H](O)C[C@@H](Cc1ccccc1)C(=O)N[C@H]1c2ccccc2C[C@H]1O with its measured IC50.
1.1 nM
